Assay: qHTS assay to identify small molecule antagonists of the peroxisome proliferator-activated receptor delta (PPARd) signaling pathway - cell viability counter screen (AID 743213); note: nearly all actives have a fitted effect of over 50% in size
Conditions: PPARd-bla HEK293H viability, CellTiter-Glo luminescence, 17 h; series mostly up to 62 µM
Inconclusive results are not listed. The source made the active and inactive calls. Calls come from the whole dose curve; as a rule, active = well fitted cell-killing curve with a large enough effect in the repeat runs; inconclusive = weak or mixed curves; inactive = no such curve, though single readings can be large or run the other way.
Possible outcomes: TRUE (active), FALSE (inactive)

{"MOLECULE": "CN1CCOCC1", "CATEGORY": "FALSE"}
{"MOLECULE": "CCCCCCCC/C=C\\CCCCCCCC(=O)O", "CATEGORY": "FALSE"}
{"MOLECULE": "C=CC(=O)OCCCC", "CATEGORY": "FALSE"}
{"MOLECULE": "C=C[C@@]1(C)CC(=O)[C@]2(O)[C@@]3(C)[C@@H](O)CCC(C)(C)[C@@H]3[C@H](O)[C@H](OC(C)=O)[C@@]2(C)O1", "CATEGORY": "TRUE"}
{"MOLECULE": "O=C(O)COCCN1CCN(C(c2ccccc2)c2ccc(Cl)cc2)CC1 (centres undefined)", "CATEGORY": "FALSE"}
{"MOLECULE": "O=C(O)CCCC(=O)O", "CATEGORY": "FALSE"}
{"MOLECULE": "C=C[C@H]1CN2CC[C@H]1C[C@@H]2[C@@H](O)c1ccnc2ccc(OC)cc12", "CATEGORY": "FALSE"}
{"MOLECULE": "CCCOCCO", "CATEGORY": "FALSE"}
{"MOLECULE": "CCCN1C=CN(C)C1", "CATEGORY": "FALSE"}
{"MOLECULE": "C[N+](C)(C)CCO", "CATEGORY": "FALSE"}
{"MOLECULE": "Nc1cc(Cl)c(N)c(Cl)c1", "CATEGORY": "FALSE"}
{"MOLECULE": "NCCS(=O)(=O)O", "CATEGORY": "FALSE"}
{"MOLECULE": "COc1ccc(C(=O)c2ccccc2O)c(O)c1", "CATEGORY": "FALSE"}
{"MOLECULE": "c1ccc2c(c1)ccc1ncccc12", "CATEGORY": "FALSE"}
{"MOLECULE": "FC(F)(F)C(Cl)Br (centres undefined)", "CATEGORY": "FALSE"}
{"MOLECULE": "O=C1CCc2ccccc2O1", "CATEGORY": "FALSE"}
{"MOLECULE": "C=CCNCC=C", "CATEGORY": "FALSE"}
{"MOLECULE": "O=S1(=O)CCCO1", "CATEGORY": "FALSE"}
{"MOLECULE": "CC1(C)OC(=O)NC1=O", "CATEGORY": "FALSE"}
{"MOLECULE": "COC(=O)CC(=O)OC", "CATEGORY": "FALSE"}
{"MOLECULE": "Brc1nc2ccccc2s1", "CATEGORY": "FALSE"}
{"MOLECULE": "C=CCOC(=O)C(=C)C", "CATEGORY": "FALSE"}
{"MOLECULE": "CCCCCC=O", "CATEGORY": "FALSE"}
{"MOLECULE": "CCOC(=O)C(C)Oc1ccc(Oc2cnc3cc(Cl)ccc3n2)cc1 (centres undefined)", "CATEGORY": "FALSE"}
{"MOLECULE": "CN(C)C", "CATEGORY": "FALSE"}
{"MOLECULE": "Nc1ccc2c(c1)C(=O)c1ccccc1C2=O", "CATEGORY": "FALSE"}
{"MOLECULE": "CNC[C@H](O)c1ccc(O)c(O)c1", "CATEGORY": "FALSE"}
{"MOLECULE": "c1ccc2c(c1)ccc1cc3c(ccc4ccccc43)cc12", "CATEGORY": "FALSE"}
{"MOLECULE": "CC(C)(Oc1ccc(Cl)cc1)C(=O)O", "CATEGORY": "FALSE"}

Hey, just so you know, these numbers are from PubChem BioAssay (Tox21).
